Assay: In vivo pharmacokinetic study in SD rats
Parameters: species or system Sprague Dawley rats
Conditions: male, Sprague-Dawley, rat, plasma, po, p.o. 10 mg/kg
Quantity name: Cmax (ng/mL)
Numeric only. Scale: ng/mL

q: So what does the record say about Cmax for O=C(Nc1ncc2ncc(-c3cn[nH]c3)cc2n1)NC1CCCC1 [32d] ?
a: 129

====

Item-by-item account of IC50
Target: PI3Kα (Homo sapiens, UniProt P42336)
Sequence (P42336 whole entry): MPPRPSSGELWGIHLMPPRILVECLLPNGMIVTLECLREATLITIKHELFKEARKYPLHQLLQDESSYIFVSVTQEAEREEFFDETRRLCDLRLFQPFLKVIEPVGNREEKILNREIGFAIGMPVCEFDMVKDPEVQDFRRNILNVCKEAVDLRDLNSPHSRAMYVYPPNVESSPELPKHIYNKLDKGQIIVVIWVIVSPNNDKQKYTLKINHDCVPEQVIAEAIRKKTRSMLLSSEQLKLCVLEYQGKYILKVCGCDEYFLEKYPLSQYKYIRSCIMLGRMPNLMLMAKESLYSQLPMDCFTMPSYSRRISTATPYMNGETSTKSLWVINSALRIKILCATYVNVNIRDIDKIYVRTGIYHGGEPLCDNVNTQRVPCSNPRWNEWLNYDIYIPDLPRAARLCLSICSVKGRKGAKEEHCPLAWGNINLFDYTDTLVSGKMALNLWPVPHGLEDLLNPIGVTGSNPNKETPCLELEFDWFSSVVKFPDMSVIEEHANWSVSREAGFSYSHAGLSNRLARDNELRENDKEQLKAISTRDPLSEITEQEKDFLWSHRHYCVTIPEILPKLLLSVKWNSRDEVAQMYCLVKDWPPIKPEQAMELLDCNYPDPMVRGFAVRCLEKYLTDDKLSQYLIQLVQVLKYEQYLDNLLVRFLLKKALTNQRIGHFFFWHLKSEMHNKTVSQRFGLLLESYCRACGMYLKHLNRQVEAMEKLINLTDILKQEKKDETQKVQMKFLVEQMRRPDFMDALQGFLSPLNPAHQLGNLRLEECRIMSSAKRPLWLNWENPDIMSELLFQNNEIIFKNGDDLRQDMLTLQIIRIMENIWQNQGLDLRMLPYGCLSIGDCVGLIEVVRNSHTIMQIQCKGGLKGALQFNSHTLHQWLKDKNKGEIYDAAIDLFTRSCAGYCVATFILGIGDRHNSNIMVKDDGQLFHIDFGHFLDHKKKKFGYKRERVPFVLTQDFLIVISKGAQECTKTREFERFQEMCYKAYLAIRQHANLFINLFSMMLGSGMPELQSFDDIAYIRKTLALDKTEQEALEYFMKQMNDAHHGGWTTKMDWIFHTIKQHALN
Sequence (P27986 whole entry partner): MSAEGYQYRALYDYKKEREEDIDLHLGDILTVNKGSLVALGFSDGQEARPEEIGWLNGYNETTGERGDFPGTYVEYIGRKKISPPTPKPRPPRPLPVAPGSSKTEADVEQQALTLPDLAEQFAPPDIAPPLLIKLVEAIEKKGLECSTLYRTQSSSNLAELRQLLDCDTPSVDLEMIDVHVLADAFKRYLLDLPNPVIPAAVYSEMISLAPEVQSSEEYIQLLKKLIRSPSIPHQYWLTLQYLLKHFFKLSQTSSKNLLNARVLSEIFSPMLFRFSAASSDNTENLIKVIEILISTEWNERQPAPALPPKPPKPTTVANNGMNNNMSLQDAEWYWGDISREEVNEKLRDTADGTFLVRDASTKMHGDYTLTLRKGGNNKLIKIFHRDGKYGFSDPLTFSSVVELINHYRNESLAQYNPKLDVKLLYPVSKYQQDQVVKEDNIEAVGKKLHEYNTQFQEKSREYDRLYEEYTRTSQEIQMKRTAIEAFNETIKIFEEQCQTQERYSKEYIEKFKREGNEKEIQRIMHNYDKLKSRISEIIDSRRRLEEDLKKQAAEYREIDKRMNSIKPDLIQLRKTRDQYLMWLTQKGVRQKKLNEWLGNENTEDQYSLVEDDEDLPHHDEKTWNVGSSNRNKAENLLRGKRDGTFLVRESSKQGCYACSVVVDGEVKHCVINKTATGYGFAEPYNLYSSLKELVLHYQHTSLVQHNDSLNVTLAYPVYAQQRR
Numeric only. Scale: µM

| Compound | Unit info | IC50 |
| --- | --- | --- |
| Cn1cc(-c2cnc3cnc(NC(=O)NCc4ccccc4)nc3c2)cn1 [32g] | µM | 0.824 |

Now turn to the next compound.
q: So what does the record say about IC50 for O=C(Nc1ncc2ncc(-c3cn[nH]c3)cc2n1)NC1CCCC1 [32d] ?
a: 0.059

====

Experiment: In vivo pharmacokinetic study in SD rats
Set-up: species or system Sprague Dawley rats
Details: male, Sprague-Dawley, rat, plasma, iv, i.v. 1 mg/kg
Description: The pharmacokinetic experiment was conducted by using 180–220 g male Sprague Dawley rats (purchased from Weitong Lihua Experimental Animal Co., Ltd., Beijing, China). The experimental animals were raised in a well-ventilated, air-conditioned standard animal room where the temperature was maintained at 20–25 °C, the humidity was maintained at 40–70%, and the light and dark were rotated for 12 h each. […]
Quantity name: AUC(0-inf)

q: So what does the record say about AUC(0-inf) for O=C(Nc1ncc2ncc(-c3cn[nH]c3)cc2n1)NC1CCCC1 [32d] ?
a: 379 ng·h/mL

====

Assay: In vivo pharmacokinetic study in SD rats
Set-up: species or system Sprague Dawley rats
Details: male, Sprague-Dawley, rat, plasma, iv, i.v. 1 mg/kg
Quantity name: AUC(0-t) (ng·h/mL)
Numeric only. Scale: ng·h/mL

q: So what does the record say about AUC(0-t) for O=C(Nc1ncc2ncc(-c3cn[nH]c3)cc2n1)NC1CCCC1 [32d] ?
a: 368

====

Test: In vivo pharmacokinetic study in SD rats
Set-up: species or system Sprague Dawley rats
Details: male, Sprague-Dawley, rat, plasma, oral, p.o. 10 mg/kg vs i.v. 1 mg/kg, read-out: oral bioavailability (F)
Quantity name: bioavailability (%)
Numeric only. Scale: %

q: So what does the record say about bioavailability for O=C(Nc1ncc2ncc(-c3cn[nH]c3)cc2n1)NC1CCCC1 [32d] ?
a: 9.37

====

Item-by-item account of inhibition at 0.1 µM
Biological target: ERK 2 (Homo sapiens)
Assay: Enzymatic inhibition assay (ADP-Glo Plus luminescence kinase assay), ERK2
Type: biochemical
Conditions: 100 nM compound
Numeric only. Scale: %

| Compound | Unit info | inhibition at 0.1 µM |
| --- | --- | --- |
| Cn1cc(-c2cnc3cnc(NC(=O)Nc4ccccc4)nc3c2)cn1 [32h] | % | 17.2 |
| CC(C)Nc1cc(-c2c[nH]c(C(=O)N[C@H](CO)c3cccc(Cl)c3)c2)c(Cl)cn1 [BVD-523, reference compound] | % | 97.7 |
| Cn1cc(-c2cnc3cnc(NC(=O)NCCN4CCOCC4)nc3c2)cn1 [32j] | % | 6.2 |
| O=C(Nc1ncc2ncc(-c3cnn(CCN4CCOCC4)c3)cc2n1)NC1CCCC1 [32l] | % | 21.4 |

q: So what does the record say about inhibition at 0.1 µM for CCNC(=O)Nc1ncc2ncc(-c3cnn(C)c3)cc2n1 [32i] ?
a: 22.1

q: Same thing, different compound: O=C(Nc1ncc2ncc(C3=CCNCC3)cc2n1)NC1CCCC1 [32f]
a: 0.4

q: Same thing, different compound: O=C(Nc1ncc2ncc(-c3ccnc(F)c3)cc2n1)NC1CCCC1 [32e]
a: 35.4

q: Same thing, different compound: CN(C)CCn1cc(-c2cnc3cnc(NC(=O)NC4CCCC4)nc3c2)cn1 [32m]
a: 8.4

q: Same thing, different compound: O=C(Nc1ncc2ncc(-c3cn[nH]c3)cc2n1)NC1CCCC1 [32d]
a: 49.3

q: Same thing, different compound: Cc1cc(-c2cnc3cnc(NC(=O)NC4CCCC4)nc3c2)ccn1 [32b]
a: 53.7

q: Same thing, different compound: Cn1cc(-c2cnc3cnc(NC(=O)NCc4ccccc4)nc3c2)cn1 [32g]
a: 55.2

q: Same thing, different compound: O=C(Nc1ncc2ncc(-c3cccc(OC(F)(F)F)c3)cc2n1)NC1CCCC1 [32c]
a: 1.6

====

Test: In vivo pharmacokinetic study in SD rats
Design: species or system Sprague Dawley rats
Settings: male, Sprague-Dawley, rat, plasma, iv, i.v. 1 mg/kg, read-out: MRT0–t
Quantity name: MRT last

q: So what does the record say about MRT last for O=C(Nc1ncc2ncc(-c3cn[nH]c3)cc2n1)NC1CCCC1 [32d] ?
a: 59.4 min

====

Experiment: In vivo pharmacokinetic study in SD rats
Design: species or system Sprague Dawley rats
Conditions: male, Sprague-Dawley, rat, plasma, po, p.o. 10 mg/kg
Quantity name: AUC(0-inf) (ng·h/mL)
Numeric only. Scale: ng·h/mL

q: So what does the record say about AUC(0-inf) for O=C(Nc1ncc2ncc(-c3cn[nH]c3)cc2n1)NC1CCCC1 [32d] ?
a: 355

====

Assay: In vitro pharmacokinetic study, oxidation metabolism in human liver microsomes
Type: in vitro ADME
Conditions: n = 3
Quantity name: microsomal CLint at 90 ng/mL (µL/min/mg)
Numeric only. Scale: µL/min/mg

q: So what does the record say about microsomal CLint at 90 ng/mL for O=C(Nc1ncc2ncc(-c3cn[nH]c3)cc2n1)NC1CCCC1 [32d] ?
a: 16

====

Target: UniProt:P42336
Test: Enzymatic inhibition assay (ADP-Glo Plus luminescence kinase assay), PI3Kα
Type: biochemical
Conditions: 100 nM compound
Quantity name: inhibition at 0.1 µM
Write your answer as a measured quantity: the number, then the unit.

For orientation, consider the following solved cases.
| Compound | Target or system | Quantity name | Result |
| --- | --- | --- | --- |
| CCNC(=O)Nc1ncc2ncc(-c3cnn(C)c3)cc2n1 [32i] | UniProt:P42336 | inhibition at 0.1 µM | 33.4% |
| Cc1cc(-c2cnc3cnc(NC(=O)NC4CCCC4)nc3c2)ccn1 [32b] | UniProt:P42336 | inhibition at 0.1 µM | 10.5% |
| O=C(Nc1ncc2ncc(C3=CCNCC3)cc2n1)NC1CCCC1 [32f] | UniProt:P42336 | inhibition at 0.1 µM | -8.8% |

q: So what does the record say about inhibition at 0.1 µM for O=C(Nc1ncc2ncc(-c3cn[nH]c3)cc2n1)NC1CCCC1 [32d] ?
a: 51.4%

====

Molecular target: ERK 2 (Homo sapiens)
Assay: Enzymatic inhibition assay (ADP-Glo Plus luminescence kinase assay), ERK2
Format: biochemical
Conditions: 1 μM (1000 nM) compound
Quantity name: inhibition at 1 µM (%)
Numeric only. Scale: %

| Molecule | Target or system | Result number |
| --- | --- | --- |
| Cn1cc(-c2cnc3nc(NC(=O)NC4CCCC4)ncc3c2)cn1 | ERK 2 (Homo sapiens) | 1.8 |
| CC(C)Nc1cc(-c2c[nH]c(C(=O)N[C@H](CO)c3cccc(Cl)c3)c2)c(Cl)cn1 [BVD-523, reference compound] | ERK 2 (Homo sapiens) | 97.7 |
| Cc1cc(-c2n[nH]c3nc(NC(=O)NC4CCCC4)ncc23)ccn1 [16b] | ERK 2 (Homo sapiens) | 84.8 |
| Cn1cc(-c2n[nH]c3nc(NC(=O)NC4CCCC4)ncc23)cn1 [16d] | ERK 2 (Homo sapiens) | 79.5 |
| Cc1cc(-c2n[nH]c3nc(NC(=O)NCc4ccccc4)ncc23)ccn1 [16a] | ERK 2 (Homo sapiens) | 98.3 |

Now turn to the next molecule.
q: So what does the record say about inhibition at 1 µM for Cn1cc(-c2n[nH]c3nc(NC(=O)NCc4ccccc4)ncc23)cn1 [16c] ?
a: 97.2

====

Experiment: In vivo pharmacokinetic study in SD rats
Design: species or system Sprague Dawley rats
Conditions: male, Sprague-Dawley, rat, plasma, po, p.o. 10 mg/kg
Quantity name: AUC(0-t) (ng·h/mL)
Numeric only. Scale: ng·h/mL

q: So what does the record say about AUC(0-t) for O=C(Nc1ncc2ncc(-c3cn[nH]c3)cc2n1)NC1CCCC1 [32d] ?
a: 192

====

Target: ERK 2 (Homo sapiens, UniProt P28482)
Sequence (P28482 whole entry): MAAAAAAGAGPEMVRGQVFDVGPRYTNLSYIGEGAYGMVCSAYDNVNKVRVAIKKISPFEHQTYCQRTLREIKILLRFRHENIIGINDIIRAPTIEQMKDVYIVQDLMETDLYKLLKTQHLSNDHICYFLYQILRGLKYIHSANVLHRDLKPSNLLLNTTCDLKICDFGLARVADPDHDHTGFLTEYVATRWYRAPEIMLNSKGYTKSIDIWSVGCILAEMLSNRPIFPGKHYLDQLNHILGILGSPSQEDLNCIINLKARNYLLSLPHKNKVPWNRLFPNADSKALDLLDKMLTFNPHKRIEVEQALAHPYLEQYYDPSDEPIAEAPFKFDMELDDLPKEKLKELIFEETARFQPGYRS
Test: Enzymatic inhibition assay (ADP-Glo Plus luminescence kinase assay), ERK2
Type: biochemical
Item-by-item account of pIC50
Please keep in mind that pIC50 is minus log10 of the molar concentration; only the number is needed.

| Molecule | Result number |
| --- | --- |
| Cn1cc(-c2cnc3cnc(NC(=O)NCc4ccccc4)nc3c2)cn1 [32g] | 7.08 |

Now turn to the next molecule.
q: // map O=C(Nc1ncc2ncc(-c3cn[nH]c3)cc2n1)NC1CCCC1 [32d] to recorded pIC50 (system: ERK 2 (Homo sapiens, UniProt P28482))
a: 7.14
